# Tested on: SF-539 CNS
# Assay info: NCI tumour cell line growth inhibition, 48 h
Measure: TGI

Below are worked cases with known answers.
1) COC(=O)c1nn2ccc3ccccc3c2c1C(=O)OC	> 100 µM
2) COC(=O)C1CC23C4=C(CCC41)CCC1CN4CC(C)C(CC(OC(C)=O)C12COC(C)=O)C43O (stereo unspecified)	> 100 µM
3) Cc1oc(N)c(S(=O)(=O)c2cc3ccccc3n(O)c2=N)c1C	> 100 µM
4) O=C1C=CC(=Nc2cccc3c(N=C4C=CC(=O)O4)cccc23)O1	36.1 µM

For reference, reported TGI for Cc1ccc(NC(=O)Nc2c(Cl)cccc2Cl)cn1 stands at > 100 µM

For reference, reported TGI for CC(=O)Oc1c(OC(C)C)c(C)c(O[Si](C(C)C)(C(C)C)C(C)C)c2[nH]c3ccccc3c12 stands at > 100 µM

====

Parameter: TGI. Scope: all listed entries.
# Tested on: NCI-H226 lung
# Assay info: NCI tumour cell line growth inhibition, 48 h
Give the value in µM but do not write µM after it.

Below are worked cases with known answers.
1. Cc1cc(C)c2c(c1)N[S@@](=O)S2	38.5
2. COc1cc(C2c3[nH]c4ccccc4c3[C@@H](Nc3ccc(C#N)cc3)[C@H]3COC(=O)N23)cc(OC)c1O (stereo not given in full)	0.651
3. Cc1cccc(/C=N\NC(=S)N2CCCCC2)n1	0.747

For reference, reported TGI for CCCCN=C(N)c1ccc(N2CCCN(c3ccc(C(N)=NCCCC)cc3)CC2)cc1 stands at 99.8

====

Parameter: TGI. Scope: all listed entries.
# Tested on: BT-549 breast
# Assay info: NCI tumour cell line growth inhibition, 48 h

1) CC(C)CC(NP(=O)(O)OC1OC(C)C(O)C(O)C1O)C(=O)NC(Cc1c[nH]c2ccccc12)C(=O)O (stereo unspecified)	> 100 µM

For reference, reported TGI for Nc1nnnc2nc[nH]c12 stands at > 25.2 µM

For reference, reported TGI for Cc1c(-c2ccc(O)cc2)oc(=O)c2ccc(O)cc12 stands at > 100 µM

For reference, reported TGI for CCc1[nH]c(=O)c2oc3cc4ccccc4cc3c2c1C(=O)O stands at > 10 µM

====

# Tested on: RXF 393 renal
# Assay info: NCI tumour cell line growth inhibition, 48 h
Parameter: TGI. Scope: all listed entries.

Below are worked cases with known answers.
1. CCN(CC)CC(=O)NC1c2ccccc2Oc2c(C)cccc21 (configuration not stated)	> 100 µM
2. NC(=O)NNCc1c(-c2ccccc2)no[n+]1[O-]	> 100 µM
3. CCN(CC)CCC1(C2CCCCC2)CCC(=O)NC1=O (configuration not stated)	> 100 µM
4. C[C@@H]1CCC2C(C)(C)C(/C=C\C=O)C3(C)OC213 (some centres not stated)	> 100 µM
5. CCN(CC)c1ccc(C2NC(=O)c3ccccc3N2)cc1 (configuration not stated)	> 100 µM

Moving on to another compound below.
For reference, reported TGI for CCN(CC)CCCNc1ccc([N+](=O)[O-])c2nc3ccc(OC)cc3c(N)c12 stands at > 10 µM

====

# Tested on: UACC-257 melanoma
# Assay info: NCI tumour cell line growth inhibition, 48 h
Measure: TGI

Below are worked cases with known answers.
1) C[C@@H]1O[C@]2(O)[C@@H]3CCCN3S(=O)(=O)CCN2C1=O	> 100 µM
2) CC1C(=O)c2cc3c(cc2CCN(C)Cc2c1ccc1c2OCO1)OCO3 (configuration not stated)	> 75 µg/mL
3) CC1CCC(=O)C(C(O)CC2CC(=O)N(c3ccccc3)C(=O)C2)C1 (configuration not stated)	> 100 µM
4) C[C@@H]1OC2(O)[C@H]3CCCN3S(=O)(=O)CCN2C1=O (some centres not stated)	> 100 µM
5) CC[C@]1(O)CC2CN(CCc3c([nH]c4ccccc34)[C@@](C(=O)OC)(c3cc4c(cc3OC)N(C=O)[C@H]3[C@@](O)(C(=O)OC)[C@H](OC(C)=O)[C@]5(CC)C=CCN6CC[C@]43[C@@H]65)C2)C1 (some centres not stated)	> 38.4 µM

Moving on to another molecule below.
For reference, reported TGI for CCCCCCSCC/C(C)=N\OC stands at > 100 µM

====

# Tested on: MALME-3M melanoma
# Assay info: NCI tumour cell line growth inhibition, 48 h
Parameter: TGI. Scope: all listed entries.

Below are worked cases with known answers.
1) Cc1ccc(NC(=O)Nc2c(Cl)cccc2Cl)cn1	> 100 µM
2) COc1cccc(C2=C(c3cn(C)c4cc(F)ccc34)C(=O)NC2=O)c1	> 25 µM
3) O=C(c1ccccc1)c1ccc2c(c1)nc1n2C(c2c(F)cccc2F)SC1 (configuration not stated)	> 100 µM
4) NC1=NC(=O)/C(=C/c2ccc3ncccc3c2)S1	> 25 µM
5) CN(C)C(=O)OC1=CC2CCC(C1)N2C (configuration not stated)	> 100 µM

With MALME-3M melanoma as the test system, Cc1nc(N)c(-c2ccccc2)s1 showed TGI of > 100 µM

With MALME-3M melanoma as the test system, COC(=O)C1CC23C4=C(CCC41)CCC1CN4CC(C)C(CC(OC(C)=O)C12COC(C)=O)C43O (configuration not stated) showed TGI of > 100 µM

====

# Test system: CAKI-1 renal
# Assay info: NCI tumour cell line growth inhibition, 48 h
Measure: TGI

1) CC1=C(C(=O)NCc2ccccc2)C(c2ccccc2C)C(C(=O)NCc2ccccc2)=C(C)N1	> 100 µM

For reference, reported TGI for NC(=O)C(=CNC(=S)Nc1ccc(S(=O)(=O)Nc2ccccn2)cc1)C(N)=O stands at > 100 µM

For reference, reported TGI for CC1=C[C@@H](C)C[C@]2(C)CC[C@H](O2)[C@]23CC[C@](CO)(C[C@H](O2)[C@@H]2O[C@@](C)(CC2=O)[C@@H](O)[C@H]2CC[C@@]4(CCC[C@@H](O4)[C@H](C)C(=O)O[C@H]4C[C@H]([C@]5(O)OCC[C@H](C)[C@@H]5O)O[C@H]4C=C1)O2)O3 stands at 0.107 µM

For reference, reported TGI for Nc1cc(S(=O)(=O)O)cc2ccc(S(=O)(=O)O)cc12 stands at > 100 µM

For reference, reported TGI for COC1=C(OC)C(=O)C(Sc2ccc3ccccc3c2)=CC1=O stands at 32.8 µM

====

# Tested on: MDA-MB-231 breast
# Assay info: NCI tumour cell line growth inhibition, 48 h
Parameter: TGI. Scope: all listed entries.

1. C(=Nc1cnc2ccccc2c1)c1ccc2ccccc2n1	> 100 µM
2. COc1cc(/C=N/c2ccccn2)cc(OC)c1OC	> 100 µM
3. COc1cccc(/C=C/c2ccnc3ccccc23)c1OC	> 10 µM

For reference, reported TGI for COc1ccc(Cn2cc3c(c2)-c2oncc2CC3)cc1OC stands at > 14.3 µM

For reference, reported TGI for O=Cc1c(-c2ccccc2)[nH]c2ccccc2c1=O stands at > 100 µM

For reference, reported TGI for N=c1ccc2nc(N)nn(O)c-2c1 stands at > 100 µM

====

# Test system: SK-MEL-5 melanoma
# Assay info: NCI tumour cell line growth inhibition, 48 h
Measure: TGI

Below are worked cases with known answers.
1) CC(=O)Nc1ccc(/C=C2\N=C(c3ccccc3)OC2=O)cc1	> 100 µM
2) CN(C)CCn1cnc2ncccc2c1=O	> 100 µM
3) COc1ccccc1-n1c(NN)nc2ccc(Br)cc2c1=O	43 µM
4) CCCCCCCCCCCCCCCCCCOc1ccccc1CC(=O)OCC[N+](CC)(CC)CC	1.75 µM
5) CCN(CC)c1ccc2cc(C(=O)NCc3ccccc3)c(=N)oc2c1	> 100 µM
6) CCCCOCOc1ccccc1P1(=O)COc2ccccc2OC1	> 100 µM
7) Cn1c2[n+](c3nc(N)[nH]c(=O)c31)C1OC(C2)C(O)C1O (centres undefined)	> 100 µM
8) COC(=O)c1nn2ccc3ccccc3c2c1C(=O)OC	> 100 µM

Moving on to another compound below.
For reference, reported TGI for CCCCCCCCCCCCCCCCc1c(C(=O)OC)nc(NN)[nH]c1=O stands at > 50 µM

====

# System: HT29 colon
# Assay info: NCI tumour cell line growth inhibition, 48 h
Parameter: TGI. Scope: all listed entries.

Below are worked cases with known answers.
1) COc1ccc(-n2c3c(c4cc(O)ccc42)Cc2ccccc2C3=O)cc1	> 100 µM
2) CN(C)C(=O)NC(=S)N(C)C	> 100 µM
3) O=C(/C=C1\N=C(c2ccccc2)N(c2nc3c(Cl)cc(Cl)cc3s2)C1=O)/C=C/c1ccccc1	> 100 µM

For reference, reported TGI for Cc1ccc(NC(=O)CSc2nnc(Cc3ccccc3)o2)cc1 stands at > 100 µM

For reference, reported TGI for CCOC(=O)[C@@H]1ON2O[C@H](OC3CCCCC3c3ccccc3)C[C@H]3OC(=O)[C@@H]1C32 (stereo not given in full) stands at > 100 µM

For reference, reported TGI for COc1cc(/C=N/c2ccccn2)cc(OC)c1OC stands at > 100 µM

For reference, reported TGI for CCOCC(=O)N(C)c1cccc2c3c(n(C)c12)CCCCC3 stands at > 100 µM

For reference, reported TGI for O=C1c2ccccc2C(=O)c2c1ccc1c(=O)n(-c3ccccc3C(F)(F)F)nnc21 stands at > 100 µM

For reference, reported TGI for CN(C)CCn1cnc2ncccc2c1=O stands at > 100 µM

For reference, reported TGI for Cc1cc(=O)n(-c2c(C)cccc2Cl)c(/C=C(\O)c2ccncc2)n1 stands at > 100 µM
